assay-target: Dihydrofolate reductase (Pneumocystis carinii, UniProt P16184)
Sequence (P16184 whole entry): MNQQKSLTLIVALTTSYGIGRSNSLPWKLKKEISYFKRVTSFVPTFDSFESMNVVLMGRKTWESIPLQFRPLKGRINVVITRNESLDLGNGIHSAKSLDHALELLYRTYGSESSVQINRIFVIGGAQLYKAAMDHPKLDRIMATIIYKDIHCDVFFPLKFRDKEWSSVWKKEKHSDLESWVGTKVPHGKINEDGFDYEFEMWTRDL
Each entry below carries its recorded pIC50.
Reminder that pIC50 is minus the log10 of a molar concentration.

Record excerpt, results attached:
The recorded pIC50 for entry COc1ccc(OC)c(CCc2cccc3nc(N)nc(N)c23)c1 equals 4.72

The recorded pIC50 for entry COc1cc(CCc2cccc3nc(N)nc(N)c23)cc(OC)c1OC equals 4.85

The recorded pIC50 for entry Nc1nc(N)c2c(CCc3ccccc3)cccc2n1 equals 5.49

Now consider the entry below.
The recorded pIC50 for entry Nc1nc(N)c2c(/C=C/c3ccccc3)cccc2n1 equals 5.00

====

assay-target: Bifunctional dihydrofolate reductase-thymidylate synthase (Toxoplasma gondii, UniProt Q07422)
Sequence (Q07422 whole entry): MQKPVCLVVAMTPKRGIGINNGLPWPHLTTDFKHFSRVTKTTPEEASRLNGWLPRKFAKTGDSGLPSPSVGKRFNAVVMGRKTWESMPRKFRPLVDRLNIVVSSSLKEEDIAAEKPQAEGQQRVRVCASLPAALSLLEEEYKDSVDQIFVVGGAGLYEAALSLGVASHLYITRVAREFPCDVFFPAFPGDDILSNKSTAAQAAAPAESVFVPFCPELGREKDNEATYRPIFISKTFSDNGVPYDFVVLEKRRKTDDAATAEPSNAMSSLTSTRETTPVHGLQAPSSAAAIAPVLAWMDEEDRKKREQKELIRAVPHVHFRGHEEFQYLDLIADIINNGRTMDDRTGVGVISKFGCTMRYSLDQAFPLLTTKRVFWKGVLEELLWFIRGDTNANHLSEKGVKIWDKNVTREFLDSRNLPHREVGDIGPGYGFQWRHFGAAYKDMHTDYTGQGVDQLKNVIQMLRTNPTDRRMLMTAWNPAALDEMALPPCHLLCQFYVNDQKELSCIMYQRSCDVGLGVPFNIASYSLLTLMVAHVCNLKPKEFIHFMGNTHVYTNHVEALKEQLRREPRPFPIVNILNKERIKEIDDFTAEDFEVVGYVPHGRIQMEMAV
measurement-type: IC50 (µM)
Hi! Could you send only the number? It should be in µM, unit omitted.

The recorded IC50 for entry COc1cc(CCc2cccc3nc(N)nc(N)c23)cc(OC)c1OC equals 0.93

The recorded IC50 for entry Nc1nc(N)c2c(/C=C/c3ccccc3)cccc2n1 equals 1.2

The recorded IC50 for entry Nc1nc(N)c2c(CCc3ccccc3)cccc2n1 equals 0.37

Further cases:
The recorded IC50 for entry COc1ccc(OC)c(CCc2cccc3nc(N)nc(N)c23)c1 equals 5.9

====

assay-target: Dihydrofolate reductase (Homo sapiens, UniProt P00374)
Sequence (P00374 whole entry): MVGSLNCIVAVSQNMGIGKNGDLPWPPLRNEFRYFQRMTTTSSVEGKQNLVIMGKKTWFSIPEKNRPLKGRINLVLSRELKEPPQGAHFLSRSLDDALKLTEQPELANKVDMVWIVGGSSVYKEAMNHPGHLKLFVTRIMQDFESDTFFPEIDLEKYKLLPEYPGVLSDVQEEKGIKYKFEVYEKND
assay-name: Inhibitory activity against Wild-type human DHFR
Each entry below carries its recorded pKi.
Reminder that pKi is minus the log10 of a molar concentration.

Record excerpt, results attached:
The recorded pKi for entry Nc1nc(N)c2cc(CNc3ccc(C(=O)NC(CCC(=O)O)C(=O)O)cc3)ccc2n1 (centres undefined) equals 12.05

The recorded pKi for entry COc1ccc(OC)c(Cc2cnc3nc(N)nc(N)c3c2C)c1 equals 7.48

Further cases:
The recorded pKi for entry Nc1nc(N)c2c(CNc3ccc(C(=O)NC(CCC(=O)O)C(=O)O)cc3)cccc2n1 (centres undefined) equals 9.27

====

As a worked illustration, we turn to IC50 data collected for UniProt:Q920D2.
Sequence (Q920D2 whole entry): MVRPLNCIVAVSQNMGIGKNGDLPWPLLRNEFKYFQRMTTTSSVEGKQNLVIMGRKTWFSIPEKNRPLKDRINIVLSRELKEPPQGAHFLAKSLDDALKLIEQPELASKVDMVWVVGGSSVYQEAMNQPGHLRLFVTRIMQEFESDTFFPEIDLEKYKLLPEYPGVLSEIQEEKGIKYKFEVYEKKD

Record excerpt, results attached:
IC50 value, target or system UniProt:Q920D2, for COc1cc(NCc2cccc3nc(N)nc(N)c23)cc(OC)c1OC : > 20 µM

IC50 value, target or system UniProt:Q920D2, for COc1ccc(OC)c(CCc2cccc3nc(N)nc(N)c23)c1 : 4.1 µM

IC50 value, target or system UniProt:Q920D2, for Nc1nc(N)c2c(CCc3ccccc3)cccc2n1 : 0.51 µM

IC50 value, target or system UniProt:Q920D2, for COc1cc(CCc2cccc3nc(N)nc(N)c23)cc(OC)c1OC : 3.7 µM

IC50 value, target or system UniProt:Q920D2, for COc1ccc(OC)c(NCc2cccc3nc(N)nc(N)c23)c1 : > 5 µM

Further cases:
IC50 value, target or system UniProt:Q920D2, for COc1ccc(OC)c(C#Cc2cccc3nc(N)nc(N)c23)c1 : > 18 µM
